read-out: Collagen IV, COL4A1 (gene 1282); assay: BSK_MyoF_CollagenIV: BioMAP Diversity Plus: MyoF Assay for Collagen IV Biomarker Activity (AID 2284247); details: primary human lung fibroblasts
Activity calls are given as the source filed them. Rule for the calls: active = hit-call score of the fitted dose curve at least 0.9, where 1 is the maximum; inactive = score below 0.9.
Experimental Endpoint: AC50

In the examples that follow, each entry is paired with its recorded AC50.
{"Molecule": "O=C(O)C(F)(F)OC(F)(F)C(F)(F)OC(F)(F)C(=O)O", "AC50": "inactive"}
{"Molecule": "O=S(=O)(F)C(F)(F)C(F)(F)C(F)(F)C(F)(F)C(F)(F)C(F)(F)C(F)(F)C(F)(F)F", "AC50": "inactive"}
{"Molecule": "OCC(F)(F)OC(F)(F)C(F)(F)OC(F)(F)C(F)(F)OC(F)(F)CO", "AC50": "inactive"}
{"Molecule": "O=C(O)C(F)(F)C(F)(F)C(=O)O", "AC50": "inactive"}
{"Molecule": "O=C(O)C=CC(F)(C(F)(F)F)C(F)(F)F", "AC50": "inactive"}

Query :: Please look up its AC50: "CCOP(=S)(OCC)SCn1nnc2ccccc2c1=O"
Result :: inactive

Query :: Can you handle "OCC(F)(F)OC(F)(F)C(F)(F)OC(F)(F)CO" next?
Result :: inactive

Query :: Next molecule: "O=c1ssc(Cl)c1Cl"
Result :: 7.41 µM (active)

Query :: One more molecule: CC(O)C(F)(F)C(F)(F)F (configuration not stated)
Result :: inactive

Query :: Consider next the molecule "C=CC(=O)OCC(CC)(COC(=O)C=C)COC(=O)C=C" in the same way.
Result :: 2.87 µM (active)

Query :: Query "ClC(Cl)=C(c1ccc(Cl)cc1)c1ccccc1Cl" next
Result :: 9.38 µM (active)

Query :: Now give it for "c1ccc2c(c1)sc1ccccc12" too.
Result :: inactive

----------
target: Peroxisome proliferator-activated receptor gamma (Homo sapiens) (UniProt P37231); experiment: NVS_NR_hPPARg: NovaScreen (NVS) Nuclear Receptor Binding Assay for human Peroxisome Proliferator-activated Receptor gamma (PPARg) (AID 2283370)
Sequence (P37231 whole entry, looked up): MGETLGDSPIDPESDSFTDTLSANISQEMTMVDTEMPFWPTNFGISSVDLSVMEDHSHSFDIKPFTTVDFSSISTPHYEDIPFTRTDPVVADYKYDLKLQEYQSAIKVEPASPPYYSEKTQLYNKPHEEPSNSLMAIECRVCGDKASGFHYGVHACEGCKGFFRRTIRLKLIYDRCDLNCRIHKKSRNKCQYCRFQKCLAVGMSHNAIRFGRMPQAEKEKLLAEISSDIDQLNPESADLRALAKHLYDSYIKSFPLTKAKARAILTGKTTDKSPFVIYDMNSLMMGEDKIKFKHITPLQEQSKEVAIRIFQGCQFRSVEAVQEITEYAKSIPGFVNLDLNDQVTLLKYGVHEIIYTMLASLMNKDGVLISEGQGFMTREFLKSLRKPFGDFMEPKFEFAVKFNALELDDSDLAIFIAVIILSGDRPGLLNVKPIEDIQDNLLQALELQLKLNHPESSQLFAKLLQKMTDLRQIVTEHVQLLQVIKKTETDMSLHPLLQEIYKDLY
Results filed as inconclusive are left out. Activity calls are given as the source filed them. Rule for the calls: active = hit-call score of the fitted dose curve at least 0.9, where 1 is the maximum; inconclusive = response in the unintended direction; inactive = score below 0.9.
Answer with one of the outcomes 1 (active), -1 (inactive)

Take a look at these entries with their results.
{"Structure": "O=c1ssc(Cl)c1Cl", "Classification": -1}
{"Structure": "O=NN1CCCC1", "Classification": -1}
{"Structure": "CSC(C)(C)C=NO", "Classification": -1}

Query :: How did this test come out for "ClC(Cl)c1ccccc1" ?
Result :: -1

Query :: One more compound: "O=S(=O)(c1ccc(O)cc1)c1ccc(O)cc1"
Result :: -1

Query :: Can you handle "CC1(C)CN=C(NN=C(/C=C/c2ccc(C(F)(F)F)cc2)/C=C/c2ccc(C(F)(F)F)cc2)NC1" next?
Result :: -1

Query :: Now the same for "CC(C)(C)OOC(C)(C)C"
Result :: -1

Query :: Try the compound "CCCCN(CC)C(=O)SCCC"
Result :: -1

Query :: // query: "CCCCN(CCCC)SN(C)C(=O)Oc1cccc2c1OC(C)(C)C2"
Result :: -1

Query :: Again, but for "O=P(Oc1ccccc1)(Oc1ccccc1)Oc1ccccc1"
Result :: 1

Query :: Follow-up entry: "CCOS(=O)(=O)OCC"
Result :: -1

Query :: Follow-up item: "O=[N+]([O-])c1ccc(Cl)c(Cl)c1"
Result :: 1
